Listed next: entries and their corresponding abundance fitness.
B1: Glucocorticoid receptor, residues 419 to 494; numbered along this chain, P04150 (parent)
chain: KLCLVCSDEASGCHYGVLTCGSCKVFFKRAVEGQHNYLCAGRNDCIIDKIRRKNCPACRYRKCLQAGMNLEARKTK

variants of: B1; assay: abundance fitness (aPCA) (normalised: wild type 0, dead -1); higher = more abundant; growth selection in yeast, the domain comes from the species named; conditions: Homo sapiens

{"columns": ["polymer_sequence", "abundance fitness"],
 "data": [
  ["KLCLVCSDEASGCHYGVLTCGSCKVFFKRAVEGQHNYLCAGRNDCIIDKIRRKNCPACRYRKRLQAGMNLEARKTK [C63R]", -0.772],
  ["KLCLVCSDEASGCHYGVLTCGSCKVFFKRAVEGQHNYLCAGRNDCIIDKIRRKNCPACRYRKCLQAGMILEARKTK [N69I]", -0.089],
  ["KLCLVCSDEASGCHYGVLTCGSCKVFFKRAVEGQHNYGCAGRNDCIIDKIRRKNCPACRYRKCLQAGMNLEARKTK [L38G]", -0.059],
  ["KLCLVPSDEASGCHYGVLTCGSCKVFFKRAVEGQHNYLCAGRNDCIIDKIRRKNCPACRYRKCLQAGMNLEARKTK [C6P]", -0.931],
  ["KLCLVCSDEASGCHGGVLTCGSCKVFFKRAVEGQHNYLCAGRNDCIIDKIRRKNCPACRYRKCLQAGMNLEARKTK [Y15G]", -0.096],
  ["KLCLVCSDEASGCHYGVLTCGSCKVFFKRAVEGQHNMLCAGRNDCIIDKIRRKNCPACRYRKCLQAGMNLEARKTK [Y37M]", 0.013],
  ["KLCLVCSDEASGCHYGVLTCGSCKVFFKRAVEGQHNYLCAGRNDCIIDKIRRKNCNACRYRKCLQAGMNLEARKTK [P56N]", 0.013],
  ["KLCLVCSDEASGCHYGVLTCGSCKVFEKRAVEGQHNYLCAGRNDCIIDKIRRKNCPACRYRKCLQAGMNLEARKTK [F27E]", -1.01],
  ["KLCLVCSDEASGCHYGVLTCGSCKVFFKRAVEGQHNYLCYGRNDCIIDKIRRKNCPACRYRKCLQAGMNLEARKTK [A40Y]", -0.032],
  ["KLCLVCSDEASGCHYGVLTCGSCKVFFKRAVEGQHNYLCAGRNDCIIDKIRRKNCPACRYRKCLQAVMNLEARKTK [G67V]", -0.583],
  ["KLCLVCSDEASGCHYGVLTCGSCKVFFKRAVEGQHNYLCAGRNDCIIDKIRRKNDPACRYRKCLQAGMNLEARKTK [C55D]", -1.13],
  ["KLCLVCSDEASGCHYGVLTCGSCKVFFKRAVEGQHNYLCAGRNDCIIDKIRRKNIPACRYRKCLQAGMNLEARKTK [C55I]", -0.801],
  ["KLCLVCSDEASGCHYGVLTCGSCKVFFKRAVEGQHNYLCAGRNDCIIDKIRRKNCPACRYRKCLQAGMNLEAGKTK [R73G]", -0.021],
  ["KLCLVCRDEASGCHYGVLTCGSCKVFFKRAVEGQHNYLCAGRNDCIIDKIRRKNCPACRYRKCLQAGMNLEARKTK [S7R]", -0.048],
  ["KLCLVCSDEASGCHYGVLTCGSCKVFFKRAVEGQHNYLCAGQNDCIIDKIRRKNCPACRYRKCLQAGMNLEARKTK [R42Q]", 0.127],
  ["KLCLVCSDEASGCHYGVLTCGSCKVFFKRKVEGQHNYLCAGRNDCIIDKIRRKNCPACRYRKCLQAGMNLEARKTK [A30K]", -0.165],
  ["KLCLVCSDEASGCHYGVLTCGSCKVFFKRAVEGQHNYLCAGRNDCIIDKIRRKWCPACRYRKCLQAGMNLEARKTK [N54W]", -0.064],
  ["KLCLVCSVEASGCHYGVLTCGSCKVFFKRAVEGQHNYLCAGRNDCIIDKIRRKNCPACRYRKCLQAGMNLEARKTK [D8V]", -0.219],
  ["KLCLVCSDERSGCHYGVLTCGSCKVFFKRAVEGQHNYLCAGRNDCIIDKIRRKNCPACRYRKCLQAGMNLEARKTK [A10R]", -0.453],
  ["KLCLVCSDEASGCHYGVLTCGSCKVFFKRAVEGQHNYSCAGRNDCIIDKIRRKNCPACRYRKCLQAGMNLEARKTK [L38S]", -0.035],
  ["KFCLVCSDEASGCHYGVLTCGSCKVFFKRAVEGQHNYLCAGRNDCIIDKIRRKNCPACRYRKCLQAGMNLEARKTK [L2F]", 0.069],
  ["KHCLVCSDEASGCHYGVLTCGSCKVFFKRAVEGQHNYLCAGRNDCIIDKIRRKNCPACRYRKCLQAGMNLEARKTK [L2H]", -0.002],
  ["KLCLVCSDEASGCHYGVLTCGSCKVFFKRAVEGQHNYLCAGRNDCIIDKERRKNCPACRYRKCLQAGMNLEARKTK [I50E]", -0.028],
  ["KLCLVCSDEASGCHYGVLLCGSCKVFFKRAVEGQHNYLCAGRNDCIIDKIRRKNCPACRYRKCLQAGMNLEARKTK [T19L]", -0.184],
  ["KLCLVCSDEASGCHYGVLTCGSCKVFFKRAVEGQHNYLCAGRNDCIIDKIRRKNCTACRYRKCLQAGMNLEARKTK [P56T]", -0.06],
  ["KLCLVCSDEASGCHYGVLTCGSCKVFFKRAVEGQHNYLCAGRNDCIIDKIRRKNCQACRYRKCLQAGMNLEARKTK [P56Q]", -0.001],
  ["KLCNVCSDEASGCHYGVLTCGSCKVFFKRAVEGQHNYLCAGRNDCIIDKIRRKNCPACRYRKCLQAGMNLEARKTK [L4N]", -0.01],
  ["KLCLVCSDEASGCHYGVLTCGSCKVFFKRAPEGQHNYLCAGRNDCIIDKIRRKNCPACRYRKCLQAGMNLEARKTK [V31P]", -0.567],
  ["KLCLVCSDEASGCHYGVLTCGSCKVFFKRAVEGQHNYLCAGRNDCIIDKIRRKNCPACEYRKCLQAGMNLEARKTK [R59E]", -0.583],
  ["KLCLVCSDEASGCHYGVLTCGSCKVFFKRAVEGQHNYLCAGRNDCIIDKIRRKNCPACRYRKCLQAGMNLEFRKTK [A72F]", -0.285],
  ["KLCLVCSDEASGCHYGVLTCGSCKVFFKNAVEGQHNYLCAGRNDCIIDKIRRKNCPACRYRKCLQAGMNLEARKTK [R29N]", -0.007],
  ["KLCLVCSDEASGCHYGVLTCGSCKVFFKRAVEGQHNKLCAGRNDCIIDKIRRKNCPACRYRKCLQAGMNLEARKTK [Y37K]", -0.122],
  ["KLCLVCSDEASGCHYGVLTCGSCKVFFKRAVEGQHNYECAGRNDCIIDKIRRKNCPACRYRKCLQAGMNLEARKTK [L38E]", 0.012],
  ["KLCLVCSDEASGCHYGVLTCGSCKVFFKRAVEGQHNYLCMGRNDCIIDKIRRKNCPACRYRKCLQAGMNLEARKTK [A40M]", -0.058],
  ["KLCLVCSDEASGCHYGVLTCGSCKVFFKRAVEGQHNYLYAGRNDCIIDKIRRKNCPACRYRKCLQAGMNLEARKTK [C39Y]", -0.951],
  ["KLCLVCSDEASGCHYGVLTCGSCKVFFKRAVEGQHNYLCAGRNDCIIDKIRRKNCPACRYRKCLQAGMNKEARKTK [L70K]", -0.029],
  ["KLCLVCSDEASGCHYGVLTCGSCKVFFKRAVEGQHNYLCAGRNDCIITKIRRKNCPACRYRKCLQAGMNLEARKTK [D48T]", -0.045],
  ["KLCLVCSDEASGCHYGVLTCGSCKVFFKRAVEGQHNYLCAGRNDCIIDKIRRKNCPACRYRKMLQAGMNLEARKTK [C63M]", -0.075],
  ["KLCLVCSDEASGCHYGVLTCGSCKVFFKRAVEGQHNYLCAGRNDCIIDKIRRKNCPACRYRKCLLAGMNLEARKTK [Q65L]", -0.035],
  ["KLCLVCSDEASGCHYGVLTCGSCKVFFKRAVEGQHNYLCAGCNDCIIDKIRRKNCPACRYRKCLQAGMNLEARKTK [R42C]", -0.064],
  ["ELCLVCSDEASGCHYGVLTCGSCKVFFKRAVEGQHNYLCAGRNDCIIDKIRRKNCPACRYRKCLQAGMNLEARKTK [K1E]", -0.048],
  ["KLCLVCSDEASGCHYGVLTCGSCKVFFKRAVEGQHNYLCAGRNDCIIDKIRRKNCPACRYRKCLQAGMNTEARKTK [L70T]", -0.03],
  ["KLCLVCSDEASGCHYGVLTCGSCKGFFKRAVEGQHNYLCAGRNDCIIDKIRRKNCPACRYRKCLQAGMNLEARKTK [V25G]", 0.008],
  ["KLCLVCSDEASGCHYGVLTCGSCKVFFKHAVEGQHNYLCAGRNDCIIDKIRRKNCPACRYRKCLQAGMNLEARKTK [R29H]", -0.071],
  ["KLCLVCSDEASGCHYGVLTCGSCKVFFKRAVEGQHNYLCAGRNDCIIDKIRRKNCPACRYRFCLQAGMNLEARKTK [K62F]", -0.158],
  ["KLCLVCSDEASGCHYGVLTCGSCYVFFKRAVEGQHNYLCAGRNDCIIDKIRRKNCPACRYRKCLQAGMNLEARKTK [K24Y]", 0.017]
]}
